Provenance of the data: patent US20240308976A1

Test system CRBN-DDB1 (Homo sapiens), IC50 listed for each of the molecules.

Which measured IC50 value corresponds to COc1c(N2CC(OC(=O)Nc3ccc(C)c(Cl)c3)C2)cc(F)c(C2CCC(=O)NC2=O)c1F (stereo not shown) ?
100 to 1000 nM

Which measured IC50 value corresponds to O=C1CCC(c2c(F)cc(N3CC(OC(=O)NC4CCCC4)C3)cc2F)C(=O)N1 (stereo not shown) ?
100 to 1000 nM

Which measured IC50 value corresponds to O=C1CCC(c2c(F)cc(N3CC(OC(=O)N[C@@H]4CC5CCC4C5)C3)cc2F)C(=O)N1 (stereo partly shown) ?
≤ 100 nM

Which measured IC50 value corresponds to CC(C)(C)N1CC(NC(=O)OC2CN(c3cc(F)c(C4CCC(=O)NC4=O)c(F)c3)C2)C1 (stereo not shown) ?
≤ 100 nM
